assay: Pharmacokinetics after intravenous and oral administration in rats; type: in vivo; settings: rat, plasma, iv dosing, dose 1 mg/kg (Ex. 9: 0.6, Ex. 18: 0.5, Ex. 50: 0.96 mg/kg)
Value type: AUC(0-t) (ng·h/mL)
# unit: ng·h/mL | format: bare number

Input CCC1CN(c2ccc(C#N)cn2)CCC1Nc1nc(Nc2ccn3c(C)cnc3c2)ncc1Cl (centres unmarked) . Output AUC(0-t): 1960

AUC(0-t) reading for `CN(c1nc(Nc2ccc3ncnn3c2)ncc1Cl)C1CCN(c2ccc(C#N)cn2)CC1` : 547

# AUC(0-t) (compound: `CC(C)(O)Cc1nc2ccc(Nc3ncc(Cl)c(NC4CCN(c5ccc(C#N)nn5)CC4)n3)cn2n1` ) is 1020

response.value for `Cc1nc2ccc(Nc3ncc(Cl)c(NC4CCN(c5ccc(C#N)nn5)CC4)n3)cn2n1` (field: AUC(0-t)) = 1560

Recorded AUC(0-t) (compound `Cc1c(Nc2ncc(Cl)c(NC3CCN(c4ccc(C#N)nn4)CC3)n2)ccn2c(C)cnc12` ): 751

Per the record, CC(O)Cn1cnc2cc(Nc3ncc(Cl)c(NC4CCN(c5ccc(C#N)cn5)CC4)n3)cnc21 (centres unmarked) has AUC(0-t) of 1090

So for `Cc1nc2cc(Nc3ncc(Cl)c(NC4CCN(c5ccc(C#N)cn5)CC4)n3)ccc2n1C` , the logged AUC(0-t) turned out to be 1510

The value of AUC(0-t) measured for the compound `Cc1cnc2cc(Nc3ncc(Cl)c(NC4CCN(c5ccc(C#N)cn5)CC4)n3)ccn12` turned out to be 844

Briefly, AUC(0-t) measured for `Cn1cnc2cc(Nc3ncc(Cl)c(NC4CCN(c5ccc(C#N)cn5)CC4)n3)ccc21` : 3400

Reported AUC(0-t) of `CC(C)(O)c1cn2ccc(Nc3ncc(Cl)c(NC4CCN(c5ccc(C#N)cn5)CC4)n3)cc2n1` : 860

Item: `Cc1nc2cc(Nc3ncc(Cl)c(NC4CCN(c5ccc(C#N)nn5)CC4)n3)ccn2n1` | AUC(0-t): 3110
